Origin of the recorded values: ChEMBL document CHEMBL1128189

- subject_of_test: UniProtKB P00797
- Sequence (P00797 whole entry): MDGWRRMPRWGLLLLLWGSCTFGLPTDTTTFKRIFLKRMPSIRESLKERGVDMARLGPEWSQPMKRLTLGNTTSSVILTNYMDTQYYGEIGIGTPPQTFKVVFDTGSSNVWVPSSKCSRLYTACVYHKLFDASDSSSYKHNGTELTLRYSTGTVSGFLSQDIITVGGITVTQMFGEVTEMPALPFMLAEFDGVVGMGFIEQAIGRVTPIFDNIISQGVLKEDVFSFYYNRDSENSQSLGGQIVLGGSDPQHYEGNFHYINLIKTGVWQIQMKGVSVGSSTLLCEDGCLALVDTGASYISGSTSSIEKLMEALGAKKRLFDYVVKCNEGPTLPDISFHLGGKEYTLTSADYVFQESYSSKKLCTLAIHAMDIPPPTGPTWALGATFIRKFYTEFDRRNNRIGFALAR
- test_description: Evaluation of inhibitory activity against human renin.
readout_type: IC50 (nM)

CCOP(=O)(OCC)[C@H](O)[C@H](CC1CCCCC1)NC(=O)[C@H](CC(C)C)NC(=O)[C@H](Cc1ccccc1)NC(=O)OC(C)(C)C | 29

(I) CCOP(=O)(OCC)[C@H](O)[C@H](CC1CCCCC1)NC(=O)[C@H](CC(C)C)NC(=O)[C@H](Cc1ccccc1)NC(=O)C1CCCC1
(II) CCOP(=O)(OCC)[C@@H](O)[C@H](CC1CCCCC1)NC(=O)[C@H](CC(C)C)NC(=O)[C@H](Cc1ccccc1)NC(=O)OC(C)(C)C
(III) COP(=O)(OC)[C@H](O)[C@H](CC1CCCCC1)NC(=O)[C@H](CC(C)C)NC(=O)[C@H](Cc1ccccc1)NC(=O)OC(C)(C)C
Sort the molecules on IC50; start with the lowest figure. Lab note: final answer is the ordered label list.
III, I, II
